Target: human PTH1 receptor (Homo sapiens)
Experiment: In vitro cAMP signal activity in HKRK-B7 cells (LLC-PK1 cells overexpressing the human PTH1 receptor)
Format: cell-based
Details: HKRK-B7 cells; compound at 1×10^−3 M; […]; 0.1 µM
Counter-ions that a name gives are not always drawn.
The reader will find reported cAMP production activity (%) values listed item by item below.
Provide only the numeric value, understood in %.

Completed entries (count: 2):
COCCOC(=O)N1CCCC(C2=NC3(CCN(S(=O)(=O)c4cccc(Cl)c4)CC3)C(=O)N2)C1 (stereo not drawn) [Compound 460] = 18
Cc1cc(C(=O)N2CCC(F)(CO)CC2)ccc1CCS(=O)(=O)N1CCC2(CC1)N=C([C@H]1CC[C@H](CC=C(F)F)CC1)NC2=O [Compound 973] = 112

Kindly consider the entry below.
For the compound Cc1cc(C(=O)N2CCNCC2)cc(C)c1/C=C/S(=O)(=O)N1CCC2(CC1)N=C(c1cccc(OC(F)(F)F)c1)NC2=O [Compound 446, hydrochloride] , give its reported cAMP production activity (%). 49

----------
Biological target: human PTH1 receptor (Homo sapiens, UniProt Q03431)
Sequence (Q03431 27-593): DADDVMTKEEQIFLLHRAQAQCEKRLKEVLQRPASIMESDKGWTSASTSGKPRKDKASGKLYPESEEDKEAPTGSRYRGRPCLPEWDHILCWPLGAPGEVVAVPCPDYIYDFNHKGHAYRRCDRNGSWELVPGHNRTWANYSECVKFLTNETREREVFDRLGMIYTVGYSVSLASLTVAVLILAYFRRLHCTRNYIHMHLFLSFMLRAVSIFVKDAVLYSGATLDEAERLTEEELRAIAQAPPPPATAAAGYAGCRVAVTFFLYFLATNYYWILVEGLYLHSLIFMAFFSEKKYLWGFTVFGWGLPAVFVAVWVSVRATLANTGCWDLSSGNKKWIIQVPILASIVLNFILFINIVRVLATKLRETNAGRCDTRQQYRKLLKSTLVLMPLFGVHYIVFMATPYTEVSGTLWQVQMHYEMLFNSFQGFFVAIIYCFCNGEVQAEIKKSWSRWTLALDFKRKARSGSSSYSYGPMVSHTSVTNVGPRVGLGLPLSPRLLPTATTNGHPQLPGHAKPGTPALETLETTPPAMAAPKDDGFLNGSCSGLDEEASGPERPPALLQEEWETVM
Test: In vitro cAMP signal activity in HKRK-B7 cells (LLC-PK1 cells overexpressing the human PTH1 receptor)
Assay type: cell-based
Conditions: HKRK-B7 cells; compound at 1×10^−3 M; cAMP produced as percentage of that produced by hPTH(1-34) at 100 nM
quantity: cAMP production activity (%)
Please give the number followed by its unit.

For the compound `Cc1c(CCS(=O)(=O)N2CCC3(CC2)N=C(c2cccc(OC(F)(F)F)c2)NC3=O)cccc1C(N)=O` , give its reported cAMP production activity (%). 96%

For the compound `COc1cccc(C2=NC3(CCN(S(=O)(=O)c4cccc(Cl)c4)CC3)C(=O)N2)c1` , give its reported cAMP production activity (%). 2.5%

For the compound `O=C1NC(C2CCCCC2)=NC12CCN(S(=O)(=O)CCc1cc3nc[nH]c3cc1C(F)(F)F)CC2` , give its reported cAMP production activity (%). 57%

For the compound `Cc1cc(C(=O)N2CCC(O)(C(F)(F)F)CC2)cc(C)c1/C=C/S(=O)(=O)N1CCC2(CC1)N=C(C1CCCCC1)NC2=O` , give its reported cAMP production activity (%). 52%

For the compound Cc1cc(N(C)C(N)=O)cc(C)c1CCS(=O)(=O)N1CCC2(CC1)N=C(C1C[C@H]3CC[C@@H](C1)C3)NC2=O (stereo partly drawn) , give its reported cAMP production activity (%). 80%

For the compound Cc1cc(CN2CCCC2=O)cc(C)c1/C=C/S(=O)(=O)N1CCC2(CC1)N=C(C1CCC(CCC(F)(F)F)CC1)NC2=O (stereo not drawn) , give its reported cAMP production activity (%). 19%

For the compound `Nc1cccc(CCS(=O)(=O)N2CCC3(CC2)N=C(C2CCCCC2)NC3=O)c1` , give its reported cAMP production activity (%). 56%

----------
Target: UniProt Q03431
Experiment: In vitro cAMP signal activity in HKRK-B7 cells (LLC-PK1 cells overexpressing the human PTH1 receptor)
Format: cell-based
Details: HKRK-B7 cells; compound at 1×10^−3 M; cAMP produced as percentage of that produced by hPTH(1-34) at 100 nM
quantity: cAMP production activity (%)
Provide only the numeric value, understood in %.

Cc1cc(C(=O)N(C)C)ccc1CCS(=O)(=O)N1CCC2(CC1)N=C(c1cc(C(F)(F)F)ccc1C)NC2=O = 77
CC(=O)N(C)c1cc(C)c(CCS(=O)(=O)N2CCC3(CC2)N=C(CCCCCCCCC(F)(F)F)NC3=O)c(C)c1 = 82
CN(C)C(=O)c1ccc(-c2ccc(S(=O)(=O)N3CCC4(CC3)N=C(c3cccc(C(F)(F)F)c3)NC4=O)s2)cc1 = 33

Kindly consider the entry below.
For the molecule Cc1cc(N2C(=O)NC(C)(C)C2=O)cc(C)c1CCS(=O)(=O)N1CCC2(CC1)N=C(C1CCC(C)CC1)NC2=O (stereo not shown) , give its reported cAMP production activity (%). 65
